B1: library; numbered along this chain (parent)
chain: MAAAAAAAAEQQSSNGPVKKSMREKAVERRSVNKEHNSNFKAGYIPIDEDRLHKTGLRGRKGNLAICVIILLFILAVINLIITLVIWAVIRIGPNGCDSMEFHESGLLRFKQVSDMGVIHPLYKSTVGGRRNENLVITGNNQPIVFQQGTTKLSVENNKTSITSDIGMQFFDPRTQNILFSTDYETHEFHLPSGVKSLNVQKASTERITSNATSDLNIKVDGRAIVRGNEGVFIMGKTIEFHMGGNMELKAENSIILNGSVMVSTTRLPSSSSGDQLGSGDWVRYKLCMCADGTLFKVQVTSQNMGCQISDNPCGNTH

variants of: B1; assay: SGCB cell-surface expression functional score (HA stain, bin4 vs bin1, normalised to synonymous) (log10 ratio); higher = more cell-surface SGCB (functional)
Using SGCB cell-surface expression functional score (log10) as the sorting value, the categories are lower segment = under -0.3, middle segment = from -0.3 up to 0.1, upper segment = 0.1 and over

Exercise: read the entry C288R and state which class it falls under.
lower segment

Exercise: read the entry N312I and state which class it falls under.
upper segment

Exercise: read the entry S264F and state which class it falls under.
upper segment

Exercise: read the entry N39E and state which class it falls under.
upper segment

Exercise: read the entry G306Q and state which class it falls under.
lower segment

Exercise: read the entry V283F and state which class it falls under.
middle segment

Exercise: read the entry N199Y and state which class it falls under.
lower segment

Exercise: read the entry M289A and state which class it falls under.
lower segment

Exercise: read the entry L153Q and state which class it falls under.
lower segment

Exercise: read the entry V77Q and state which class it falls under.
upper segment

Exercise: read the entry R58E and state which class it falls under.
middle segment

Exercise: read the entry T238Q and state which class it falls under.
upper segment

Exercise: read the entry V300S and state which class it falls under.
lower segment

Exercise: read the entry Q148S and state which class it falls under.
upper segment

Exercise: read the entry S164C and state which class it falls under.
lower segment

Exercise: read the entry E10N and state which class it falls under.
upper segment

Exercise: read the entry N132T and state which class it falls under.
lower segment

Exercise: read the entry K111W and state which class it falls under.
middle segment

Exercise: read the entry R284K and state which class it falls under.
lower segment

Exercise: read the entry T186E and state which class it falls under.
upper segment

Exercise: read the entry K41W and state which class it falls under.
middle segment

Exercise: read the entry T205S and state which class it falls under.
middle segment
